Where these numbers come from: PubChem BioAssay (NCATS)

experiment: Quantitative High-Throughput drug screen in 47 multiple myeloma cell lines against the NCATS MIPE library collection: L363_DSMZ cell viability assay (AID 1918984); conditions: L363 myeloma viability, CellTiter-Glo ATP luminescence, 48 h; series mostly up to 45.8 µM; further: nearly all actives have a fitted effect of over 40% in size
Results filed as inconclusive are left out. The source made the active and inactive calls. The call rests on the fitted dose curve; in most records, active means well fitted cell-killing curve with a large enough effect; inconclusive means small, poorly fitted or top-dose-only effect, or effect the other way; inactive means no such curve, though single readings can be large or run the other way.
The categories you may choose from are active, inactive

Reference set (6 entries):
# SMILES_ENTRY, QUALITATIVE_LABEL
data = [
    ("NC(=O)c1ncn([C@@H]2O[C@H](CO)[C@@H](O)[C@@H]2O)c1O", "inactive"),
    ("Cc1cc(Nc2ncc3c(n2)N(C)C(=O)N(c2cc(NC(=O)c4cccc(C(F)(F)F)c4)ccc2C)C3)n(C)n1", "active"),
    ("COC(=O)[C@@H]1[C@H]2C[C@@H]3c4[nH]c5ccccc5c4CCN3C[C@@H]2CC[C@@H]1O", "inactive"),
    ("CCOC(=O)[C@@H](N)Cc1ccc(-c2cc(O[C@H](c3ccc(Cl)cc3-n3ccc(C)n3)C(F)(F)F)nc(N)n2)cc1", "active"),
    ("O=C(NC1CC1)c1cccc(-c2ccc3c(NC(=O)C4CC4)n[nH]c3c2)c1", "inactive"),
    ("NC[C@H]1O[C@H](O[C@H]2[C@@H](O)[C@@H](O[C@H]3O[C@H](CO)[C@@H](O)[C@H](N)[C@@H]3O)[C@H](N)C[C@@H]2N)[C@H](N)C[C@H]1O", "inactive"),
]

Kindly provide the recorded test outcome for the following compound: `O=c1ccn([C@@H]2O[C@H](CO)[C@H](O)[C@@H]2F)c(=O)[nH]1`
inactive

Per the records of this test, what outcome belongs to `CC(=O)N[C@H]1[C@@H]([C@H](O)[C@H](O)CO)OC(C(=O)O)=C[C@@H]1N=C(N)N` ?
inactive
